TESTED_ON: ROCKII or ROKα (Homo sapiens, UniProt O75116)
Construct: purchased Upstate 14-451
Sequence (O75116 11-552 limits assumed): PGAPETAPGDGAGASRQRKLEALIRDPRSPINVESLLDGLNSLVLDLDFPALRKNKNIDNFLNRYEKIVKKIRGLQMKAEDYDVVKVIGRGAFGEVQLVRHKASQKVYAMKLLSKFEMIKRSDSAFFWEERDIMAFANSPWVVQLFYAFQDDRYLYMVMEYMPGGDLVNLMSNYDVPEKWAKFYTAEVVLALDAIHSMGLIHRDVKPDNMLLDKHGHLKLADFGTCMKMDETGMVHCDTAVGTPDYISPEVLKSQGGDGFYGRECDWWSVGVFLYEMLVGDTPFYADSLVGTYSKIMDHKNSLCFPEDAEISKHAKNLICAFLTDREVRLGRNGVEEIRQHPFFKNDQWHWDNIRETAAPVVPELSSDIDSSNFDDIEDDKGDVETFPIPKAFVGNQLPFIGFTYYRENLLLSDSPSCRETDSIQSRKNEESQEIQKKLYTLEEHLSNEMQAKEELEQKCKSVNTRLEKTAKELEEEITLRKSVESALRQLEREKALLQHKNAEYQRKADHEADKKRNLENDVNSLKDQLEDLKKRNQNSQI
TEST_DETAILS: Determination of Rho kinase inhibition (33P-ATP Streptavidin Flash Plate assay)
Type: biochemical
EXPERIMENTAL_SETUP: ATP 40 μM, activity denoted as pIC50 class
MEASURED_QUANTITY: IC50

{"COMPOUND": "COc1cccc(Nc2cc3c(C4CC4)c(OC4CCNCC4)ccc3cn2)c1.Cl", "MEASUREMENT": "+++ (5.0≦pIC50<6.0)"}
{"COMPOUND": "c1ccc(Cc2c(OC3CCNCC3)ccc3cnccc23)cc1", "MEASUREMENT": "+++ (5.0≦pIC50<6.0)"}
{"COMPOUND": "Cc1c(OC2CCNCC2)cc2ccncc2c1C.Cl", "MEASUREMENT": "+++ (5.0≦pIC50<6.0)"}
{"COMPOUND": "Clc1cc2cnccc2c(Cl)c1OC1CCNCC1", "MEASUREMENT": "++++ (6.0≦pIC50)"}
{"COMPOUND": "Cl.Ic1c(OC2CCNCC2)ccc2cnccc12", "MEASUREMENT": "++++ (6.0≦pIC50)"}
{"COMPOUND": "CCc1cncc2ccc(OC3CCNCC3)cc12.Cl", "MEASUREMENT": "+++ (5.0≦pIC50<6.0)"}
{"COMPOUND": "O=C(O)C(F)(F)F.c1cc2cc(OC3CCCNC3)ccc2cn1 (stereo not drawn)", "MEASUREMENT": "+++ (5.0≦pIC50<6.0)"}
{"COMPOUND": "c1ccc(-c2cc3cnccc3cc2OC2CCNCC2)cc1", "MEASUREMENT": "++++ (6.0≦pIC50)"}

Ask: Quick one: IC50 for `Brc1c(OC2CCNCC2)ccc2cnccc12.Cl` ?
Result: ++++ (6.0≦pIC50)

Ask: Quick one: IC50 for `O=C(O)C(F)(F)F.c1ccc2oc(-c3c(OC4CCNCC4)ccc4cnccc34)cc2c1` ?
Result: ++++ (6.0≦pIC50)

Ask: Quick one: IC50 for `Cl.c1cc2c(cc1Nc1cc3cc(OC4CCNCC4)ccc3cn1)OCO2` ?
Result: ++++ (6.0≦pIC50)

Ask: Quick one: IC50 for `COc1ccc2cc(CN3CCC(Oc4ccc5cnccc5c4)CC3)ccc2c1.O=C(O)C(F)(F)F` ?
Result: ++++ (6.0≦pIC50)

----------
TESTED_ON: ROCKII or ROKα (Homo sapiens, UniProt O75116)
Construct: purchased Upstate 14-451
TEST_DETAILS: Determination of Rho kinase inhibition (33P-ATP Streptavidin Flash Plate assay)
Format: biochemical
EXPERIMENTAL_SETUP: ATP 40 μM, activity denoted as pIC50 class
MEASURED_QUANTITY: IC50

Solved entries (count: 5):
{"COMPOUND": "CN1CCCC(COc2ccc3cnccc3c2Br)C1.O=C(O)C(F)(F)F (stereo not drawn)", "MEASUREMENT": "++++ (6.0≦pIC50)"}
{"COMPOUND": "COc1ccc(-c2c(OC3CCNCC3)ccc3cnccc23)cc1N", "MEASUREMENT": "++++ (6.0≦pIC50)"}
{"COMPOUND": "COc1cc(Nc2cc3cc(OC4CCNCC4)ccc3cn2)cc(OC)c1OC", "MEASUREMENT": "++++ (6.0≦pIC50)"}
{"COMPOUND": "Cc1cc(OC2CCNCC2)c(C)c2ccncc12.Cl", "MEASUREMENT": "++++ (6.0≦pIC50)"}
{"COMPOUND": "Cl.Clc1cc(OC2CCNCC2)cc2ccncc12", "MEASUREMENT": "++++ (6.0≦pIC50)"}

Ask: Quick one: IC50 for `Cl.Clc1cncc2ccc(OC3CCNCC3)cc12` ?
Result: ++++ (6.0≦pIC50)

Ask: Quick one: IC50 for `O=C(O)C(F)(F)F.c1ccc(C(CN2CCC(Oc3ccc4cnccc4c3)CC2)c2ccccc2)cc1` ?
Result: +++ (5.0≦pIC50<6.0)

Ask: Quick one: IC50 for `OCc1cccc(-c2c(OC3CCNCC3)ccc3cnccc23)c1` ?
Result: +++ (5.0≦pIC50<6.0)

Ask: Quick one: IC50 for `FC(F)(F)CCN1CCC(Oc2ccc3cnccc3c2)CC1.O=C(O)C(F)(F)F` ?
Result: +++ (5.0≦pIC50<6.0)
